Exercise: state measured inhibition for each of the compounds provided.
# Target: Bcl-2-related protein A1 (Homo sapiens) (UniProt Q16548)
# Sequence (Q16548 whole entry, looked up): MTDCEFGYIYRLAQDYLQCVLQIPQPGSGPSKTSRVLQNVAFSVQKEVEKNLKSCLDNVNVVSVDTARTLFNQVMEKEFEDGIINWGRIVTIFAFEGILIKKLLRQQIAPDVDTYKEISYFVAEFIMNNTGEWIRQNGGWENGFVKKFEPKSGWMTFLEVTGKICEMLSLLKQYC
# Assay Comment: Bfl-1/Bim complex disruptors – biochemical, multiplexed, bead-based flow cytometry, primary screen (AID 1008);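 note: 0% = wells without compound plus tracer and 100% = blocker peptide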
# Conditions Used: Bim-Bfl-1 binding inhibition, at 10 µM, stronger effect = higher value
The whole screen tested about 190,000 compounds, of which about 240 (0.13%) were called active. This excerpt belongs to a sample that is enriched for actives.

Known results for compounds:
{"columns": ["Compound", "Target", "Experimental Endpoint", "Result Value"],
 "data": [
  ["Cc1cc(Cl)c(S(=O)(=O)Nc2ccc3c(c2)OCCO3)cc1OCC(N)=O", "Bcl-2-related protein A1 (Homo sapiens) (UniProt Q16548)", "inhibition", "-2% (inactive)"],
  ["Cc1cc(Cl)c(S(=O)(=O)NCC2CCCO2)cc1OCC(N)=O (stereo not drawn)", "Bcl-2-related protein A1 (Homo sapiens) (UniProt Q16548)", "inhibition", "48% (active)"]
]}

Okay, next one:
Kindly state the measured inhibition obtained for C=CCn1c2ccccc2c2nnc(SCc3[nH]c(=O)[nH]c3C(=O)CCCCC(=O)OCC)nc21 with Bcl-2-related protein A1 (Homo sapiens) (UniProt Q16548).
16% (inactive)

The reported numbers originate from PubChem BioAssay AID1008.
